- Tested on: HEK293T
- method_notes: plasma membrane surface immunostaining intensity (anti-HA, deep receptor scanning) (arbitrary fluorescence units); higher = higher plasma membrane expression
- condition_notes: GPCR class: A
endpoint_name: plasma membrane surface immunostaining intensity
Answers are plain numbers.

Form field plasma membrane surface immunostaining intensity, entry MLPDWKSSLILMAYIIIFLTGLPANLLALRAFVGRIRQPQPAPVHILLLSLTLADLLLLLLLPFKIIEAASNFRWYLPKVVCALTSFGFYSSIYCSTWLLAGISIERYLGVAFPVQYKLSRRPLYGVIAALVAWVMSFGHCTIVIIVQYLNTTEQVRSGNEITCYENFTDNQLDVVLPVRLELCLVLFFIPMAVTIFCYWRFVWIMLSQPLVGAQRRRRAVGLAVVTLLNFLVCFGPYNVSHLVGYHQRKSPWWRSIAVVFSSLNASLDPLLFYFSSSVVRRAFGRGLQVLRNQGSSLLGRRGKDTAEGTNEDRGVGQGEGMPSSDFTTE [FFAR2] : 3600

---

- Tested on: HEK293T
- method_notes: plasma membrane surface immunostaining intensity (anti-HA, deep receptor scanning) (arbitrary fluorescence units); higher = higher plasma membrane expression
- condition_notes: GPCR class: A (Olfactory)
endpoint_name: plasma membrane surface immunostaining intensity
Answers are plain numbers.

>>> quantitative_readout("MGNWTAAVTEFVLLGFSLSREVELLLLVLLLPTFLLTLLGNLLIISTVLSCSRLHTPMYFFLCNLSILDILFTSVISPKVLANLGSRDKTISFAGCITQCYFYFFLGTVEFLLLTVMSYDRYATICCPLRYTTIMRPSVCIGTVVFSWVGGFLSVLFPTILISQLPFCGSNIINHFFCDSGPLLALACADTTAIELMDFMLSSMVILCCIVLVAYSYTYIILTIVRIPSASGRKKAFNTCASHLTIVIISSGITVFIYVTPSQKEYLEINKIPLVLSSVVTPFLNPFIYTLRNDTVQGVLRDVWVRVRGVFEKRMRAVLRSRLSSNKDHQGRACSSPPCVYSVKLQC [OR6J1]")
279

Form field plasma membrane surface immunostaining intensity, entry MENQSSISEFFLRGISAPPEQQQSLFGIFLCMYLVTLTGNLLIILAIGSDLHLHTPMYFFLANLSFVDMGLTSSTVTKMLVNIQTRHHTISYTGCLTQMYFFLMFGDLDSFFLAAMAYDRYVAICHPLCYSTVMRPQVCALMLALCWVLTNIVALTHTFLMARLSFCVTGEIAHFFCDITPVLKLSCSDTHINEMMVFVLGGTVLIVPFLCIVTSYIHIVPAILRVRTRGGVGKAFSTCSSHLCVVCVFYGTLFSAYLCPPSIASEEKDIAAAAMYTIVTPMLNPFIYSLRNKDMKGALKRLFSHRSIVSS [OR1N1] : 119

---

Provide the reported plasma membrane surface immunostaining intensity of each item.
- System: HEK293T
- method_notes: plasma membrane surface immunostaining intensity (anti-HA, deep receptor scanning) (arbitrary fluorescence units); higher = higher plasma membrane expression
- condition_notes: GPCR class: A
One number for each entry.

>>> quantitative_readout("MWNATPSEEPGFNLTLADLDWDASPGNDSLGDELLQLFPAPLLAGVTATCVALFVVGIAGNLLTMLVVSRFRELRTTTNLYLSSMAFSDLLIFLCMPLDLVRLWQYRPWNFGDLLCKLFQFVSESCTYATVLTITALSVERYFAICFPLRAKVVVTKGRVKLVIFVIWAVAFCSAGPIFVLVGVEHENGTDPWDTNECRPTEFAVRSGLLTVMVWVSSIFFFLPVFCLTVLYSLIGRKLWRRRRGDAVVGASLRDQNHKQTVKMLAVVVFAFILCWLPFHVGRYLFSKSFEPGSLEIAQISQYCNLVSFVLFYLSAAINPILYNIMSKKYRVAVFRLLGFEPFSQRKLSTLKDESSRAWTESSINT [GHSR]")
1480

Let's switch to this sequence now.
// sequence MAETSALPTGFGELEVLAVGMVLLVEALSGLSLNTLTIFSFCKTPELRTPCHLLVLSLALADSGISLNALVAATSSLLRRWPYGSDGCQAHGFQGFVTALASICSSAAIAWGRYHHYCTRSQLAWNSAVSLVLFVWLSSAFWAALPLLGWGHYDYEPLGTCCTLDYSKGDRNFTSFLFTMSFFNFAMPLFITITSYSLMEQKLGKSGHLQVNTTLPARTLLLGWGPYAILYLYAVIADVTSISPKLQMVPALIAKMVPTINAINYALGNEMVCRGIWQCLSPQKREKDRTK [RGR] , assay HEK293T, plasma membrane surface immunostaining intensity value: 125
